// data source = the METLIN SMRT retention time set (Domingo-Almenara et al. 2019)

assay: gradient 5% acetonitrile 3 min, to 50% in 2 min, to 85% in 15 min, held 3 min, 100 µL/min; details: column: Zorbax Extend-C18 2.1 x 50 mm; eluents: water / acetonitrile, 0.1% formic acid
Experimental Endpoint: RP-LC retention time (s)
Express it in s; write the number only.

The examples below pair each entry with its known result.
- Compound: "O=C(NC1CCCC1)C1CCN(C(=O)c2cc(-c3ccncc3)n[nH]2)CC1"
  RP-LC retention time / s: 582
- Compound: "CCC(C(=O)Nc1ccc(-c2nc(Cn3cccn3)c(C)o2)cc1)c1ccccc1 (centres undefined)"
  RP-LC retention time / s: 962
- Compound: "COc1ccc(C(=O)NCCS(=O)(=O)NCc2cccnc2)cc1"
  RP-LC retention time / s: 547
- Compound: "Cn1nccc1C(=O)N1CCc2c([nH]c3ccccc23)C1c1ccc(F)cc1 (centres undefined)"
  RP-LC retention time / s: 995
- Compound: "Cc1cccc(CN2CCCn3nc(C(=O)NCCN4CCOCC4)cc3C2=O)c1"
  RP-LC retention time / s: 621

Report RP-LC retention time for O=C(CSc1ccc(N2CCCC(C(=O)NC3CC3)C2)nn1)Nc1ccccc1F (centres undefined) 643

Determine from records and report RP-LC retention time for CC1(C(=O)NC2CCCCCCC2)CN(S(C)(=O)=O)CC(=O)N1c1ccccc1Cl (centres undefined) 924

Consider the compound `CCOc1ccc(-n2cc(C(=O)OC(C)C)c3ccccc3c2=O)cc1` . State its measured RP-LC retention time. 1220

Output measured RP-LC retention time for this item: O=C(Cc1ccccc1Cl)NCC(O)c1ccc(C(F)(F)F)cc1 (centres undefined) 806

----------
assay: gradient 5% acetonitrile 3 min, to 50% in 2 min, to 85% in 15 min, held 3 min, 100 µL/min; conditions: column: Zorbax Extend-C18 2.1 x 50 mm; eluents: water / acetonitrile, 0.1% formic acid
Experimental Endpoint: RP-LC retention time (s)
Write it as a number; the unit s goes unstated.

Give the reported value of RP-LC retention time for this record: `CN1CCN(C(=O)C2CCN(c3nc4ccc(-c5ccccc5)nc4s3)CC2)CC1` 672

----------
# RP-LC retention time annotations
assay: gradient 5% acetonitrile 3 min, to 50% in 2 min, to 85% in 15 min, held 3 min, 100 µL/min; details: column: Zorbax Extend-C18 2.1 x 50 mm; eluents: water / acetonitrile, 0.1% formic acid
Lab note: write values as number then unit, every time.

Solved cases (3 shown):
- Query Smiles: "CSc1ccc(-c2nc3cnccn3c2NC2CCCC2)cc1"
  Result Value: "914 s"
- Query Smiles: "Cc1ccc(C(=O)N2C[C@@H]3C[C@H]2C[C@@H]3NS(C)(=O)=O)s1"
  Result Value: "595 s"
- Query Smiles: "O=C(COc1ccc(NC(=O)C2CC2)cn1)NC1CCN(Cc2ccccc2)CC1"
  Result Value: "590 s"

Next, consider the following compound.
Indicate its recorded RP-LC retention time; the compound in question is `CCOc1ccc(NS(=O)(=O)c2cc3c(s2)CCN(C(=O)C2CCC2)C3)cc1` 896 s

----------
Reported RP-LC retention time values for the following compounds.
experiment: gradient 5% acetonitrile 3 min, to 50% in 2 min, to 85% in 15 min, held 3 min, 100 µL/min; conditions: column: Zorbax Extend-C18 2.1 x 50 mm; eluents: water / acetonitrile, 0.1% formic acid
Expressed in s, but write only the number.

Solved entries (count: 5):
- Query Smiles: "Cc1cc(C)n(-c2ccc(CNC(=O)c3ccc(Cl)s3)cc2)n1"
  RP-LC retention time, s: 892
- Query Smiles: "COc1cccc(Cn2c(=O)c3sccc3n(Cc3nc(-c4cccc(OC)c4)no3)c2=O)c1"
  RP-LC retention time, s: 1080
- Query Smiles: "COc1ccc(-n2ccc(=O)c(-c3nc(-c4ccc5c(c4)OCO5)no3)n2)cc1"
  RP-LC retention time, s: 855
- Query Smiles: "CCNc1cc(C)nc(N2CCN(C(=O)c3ccc(-c4ccccc4)cc3)CC2)n1"
  RP-LC retention time, s: 746
- Query Smiles: "CC(=O)N1CCc2sc(S(=O)(=O)N3CCN(c4cccc(C)c4C)CC3)cc2C1"
  RP-LC retention time, s: 1030

Determine its reported RP-LC retention time: `COc1cccc2cc(C(=O)Nc3nc4c(s3)CN(S(=O)(=O)C3CC3)CC4)oc12` 811
